# target_entity: GSPT1 (Homo sapiens, UniProt P15170+Q96SW2)
# Construct: Whole cell extracts were prepared using RIPA buffer; endogenous in cells; host or cells: MV-4-11
# Sequence (P15170 whole entry): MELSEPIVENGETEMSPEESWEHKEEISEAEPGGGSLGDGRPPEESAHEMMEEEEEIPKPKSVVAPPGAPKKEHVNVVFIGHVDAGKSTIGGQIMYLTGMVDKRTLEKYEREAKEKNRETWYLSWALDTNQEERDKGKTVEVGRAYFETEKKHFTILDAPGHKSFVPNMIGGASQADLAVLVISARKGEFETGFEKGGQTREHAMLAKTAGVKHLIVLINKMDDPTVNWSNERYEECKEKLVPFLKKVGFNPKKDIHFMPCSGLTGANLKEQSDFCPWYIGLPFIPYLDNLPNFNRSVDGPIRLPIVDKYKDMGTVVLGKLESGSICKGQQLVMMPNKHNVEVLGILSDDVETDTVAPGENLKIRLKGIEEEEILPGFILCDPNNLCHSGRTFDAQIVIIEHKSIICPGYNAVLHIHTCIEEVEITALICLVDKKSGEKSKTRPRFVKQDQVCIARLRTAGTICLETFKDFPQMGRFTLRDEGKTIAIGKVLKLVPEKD
# Sequence (Q96SW2 whole entry): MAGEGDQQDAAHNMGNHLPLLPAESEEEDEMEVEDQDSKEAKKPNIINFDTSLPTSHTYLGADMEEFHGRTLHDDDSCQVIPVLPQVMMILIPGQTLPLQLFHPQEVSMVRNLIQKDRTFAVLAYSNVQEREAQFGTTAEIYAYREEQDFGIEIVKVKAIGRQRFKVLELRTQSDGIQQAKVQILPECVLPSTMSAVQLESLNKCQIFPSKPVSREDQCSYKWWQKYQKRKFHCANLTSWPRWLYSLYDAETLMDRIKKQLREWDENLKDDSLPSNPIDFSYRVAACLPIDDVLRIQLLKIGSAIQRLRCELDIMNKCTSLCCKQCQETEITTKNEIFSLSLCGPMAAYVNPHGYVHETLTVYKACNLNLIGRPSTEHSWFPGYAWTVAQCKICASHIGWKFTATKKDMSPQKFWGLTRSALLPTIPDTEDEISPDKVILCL
# Sequence (Q16531 whole entry partner): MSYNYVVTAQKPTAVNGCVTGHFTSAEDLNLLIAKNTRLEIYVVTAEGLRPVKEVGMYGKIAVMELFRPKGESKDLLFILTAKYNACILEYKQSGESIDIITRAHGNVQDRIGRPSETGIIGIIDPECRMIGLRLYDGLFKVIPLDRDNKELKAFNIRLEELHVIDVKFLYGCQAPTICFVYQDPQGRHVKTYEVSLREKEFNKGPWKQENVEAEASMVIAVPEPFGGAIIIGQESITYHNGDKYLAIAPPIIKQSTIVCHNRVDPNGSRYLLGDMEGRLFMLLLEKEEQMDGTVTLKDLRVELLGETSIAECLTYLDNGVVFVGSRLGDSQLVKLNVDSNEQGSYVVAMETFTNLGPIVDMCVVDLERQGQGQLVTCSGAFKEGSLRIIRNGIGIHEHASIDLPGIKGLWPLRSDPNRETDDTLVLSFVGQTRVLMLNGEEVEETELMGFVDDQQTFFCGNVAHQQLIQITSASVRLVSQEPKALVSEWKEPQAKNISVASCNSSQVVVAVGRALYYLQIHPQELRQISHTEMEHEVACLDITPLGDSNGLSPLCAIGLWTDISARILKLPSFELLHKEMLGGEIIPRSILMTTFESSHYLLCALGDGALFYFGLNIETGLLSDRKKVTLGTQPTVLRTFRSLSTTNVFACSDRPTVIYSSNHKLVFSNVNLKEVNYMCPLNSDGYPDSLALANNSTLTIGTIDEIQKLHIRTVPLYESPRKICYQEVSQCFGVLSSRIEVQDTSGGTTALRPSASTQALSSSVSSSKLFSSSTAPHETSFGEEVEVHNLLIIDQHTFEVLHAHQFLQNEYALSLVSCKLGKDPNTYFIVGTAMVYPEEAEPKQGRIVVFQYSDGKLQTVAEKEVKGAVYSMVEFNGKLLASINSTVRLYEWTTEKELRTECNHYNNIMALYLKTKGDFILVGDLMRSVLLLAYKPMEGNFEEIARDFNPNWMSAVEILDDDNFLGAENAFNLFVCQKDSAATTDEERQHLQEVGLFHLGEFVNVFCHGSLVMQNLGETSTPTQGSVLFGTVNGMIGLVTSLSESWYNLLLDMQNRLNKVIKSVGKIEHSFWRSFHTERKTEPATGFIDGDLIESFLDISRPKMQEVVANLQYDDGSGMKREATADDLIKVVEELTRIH
# method: GSPT1 degradation assay (Western blot, MV-4-11 cells)
# Assay type: cell-based
# experimental_context: MV4-11, 6-8 h
# Description: MV-4-11 cells were grown in RPMI 1640 media supplemented with 10% fetal bovine serum, streptomycin and penicillin. Cells were cultured at approximately 10^6 cells per mL and incubated in DMSO or the indicated compound for 6-8 h. […] For Western blot analysis, whole cell protein extracts were separated on 4-12% SDS-polyacrylamide gels, transferred to nitrocellulose and probed with the indicated primary antibodies. […] The signal was detected using the Odyssey Imaging System (LI-COR). […]
measurement_name: Dmax at 1 µM

Query block: Name the recorded Dmax at 1 µM of the item CC(C)(C)c1cnc(CSc2cnc(NC(=O)C3CCN(CC(=O)NCCCCCNC(=O)NCc4scc5c4CN(C4CCC(=O)NC4=O)C5=O)CC3)s2)o1 (stereo not drawn) in your answer.
Result block: 25 to 50%

Query block: Give reported Dmax at 1 µM value for Cn1ncc(-c2nc(N[C@H]3CC[C@H](NCC(=O)NCCOCCOCCOCCNc4cccc5c4CN(C4CCC(=O)NC4=O)C5=O)CC3)ncc2Cl)c1CC1CC1 (stereo partly drawn)
Result block: 50 to 75%

Query block: Give Dmax at 1 µM for Cn1ncc(-c2nc(N[C@H]3CC[C@H](NC(=O)CCCCCCNCC(=O)Nc4cccc5c4CN([C@H]4CCCC(=O)NC4=O)C5=O)CC3)ncc2Cl)c1CC1CC1
Result block: 50 to 75%
